Provenance of the data: patent US8608842B2

# Variation amount after irradiation [%] per entry
Procedure summary: Ultraviolet curable ink of Example 4: reflected light of mark for copy protection, before and after xenon irradiation
Type: physicochemical
Condition set: xenon light of 70,000 lux, 72 hours; variation compared to the value before irradiation
The response must be a number in % with no trailing unit.

Reference set (2 entries):
{"columns": ["Compound", "Uom", "Variation amount after irradiation [%]"],
 "data": [
  ["CCCCCCCCOc1c2c(c(OCCCCCCCC)c3ccccc13)C1=Nc3c4c(OCCCCCCCC)c5ccccc5c(OCCCCCCCC)c4c4[n]3[Zn][n]3c(c5c(OCCCCCCCC)c6ccccc6c(OCCCCCCCC)c5c3=NC3=NC(=N4)c4c3c(OCCCCCCCC)c3ccccc3c4OCCCCCCCC)=NC2=N1", "%", 4],
  ["Nc1ccccc1Sc1c2c(c(Sc3ccccc3N)c3c1C1=Nc4c5c(Sc6ccccc6N)c6c(c(Sc7ccccc7N)c5c5[n]4[Cu][n]4c(c7c(Sc8ccccc8N)c8c(c(Sc9ccccc9N)c7c4=NC4=NC(=N5)c5c(Sc7ccccc7N)c7c(c(Sc9ccccc9N)c54)NC4C=CC=CC4S7)SC4C=CC=CC4N8)=NC3=N1)NC1C=CC=CC1S6)SC1C=CC=CC1N2 (stereo not drawn)", "%", 4]
]}

Next compound, please.
Which value of Variation amount after irradiation [%] has been reported for CCCCOc1c2c(c(OCCCC)c3ccccc13)C1=Nc3c4c(OCCCC)c5ccccc5c(OCCCC)c4c4[n]3[Cu][n]3c(c5c(OCCCC)c6ccccc6c(OCCCC)c5c3=NC3=NC(=N4)c4c3c(OCCCC)c3ccccc3c4OCCCC)=NC2=N1 in the records?
3

----------
Procedure summary: Ultraviolet curable ink of Example 4: reflected light of mark for copy protection, before and after xenon irradiation
Type: physicochemical
Condition set: xenon light of 70,000 lux, 72 hours; variation compared to the value before irradiation
The following compounds are listed with their measured Variation amount after irradiation [%] values.
// return the numeric value with its unit appended

{"columns": ["Compound", "Variation amount after irradiation [%]"],
 "data": [
  ["CCCCCCCCOc1c2c(c(OCCCCCCCC)c3ccccc13)C1=Nc3c4c(OCCCCCCCC)c5ccccc5c(OCCCCCCCC)c4c4[n]3[Cu][n]3c(c5c(OCCCCCCCC)c6ccccc6c(OCCCCCCCC)c5c3=NC3=NC(=N4)c4c3c(OCCCCCCCC)c3ccccc3c4OCCCCCCCC)=NC2=N1", "2%"]
]}

Looking for the measured Variation amount after irradiation [%] of Nc1ccccc1Sc1c2c(c(Sc3ccccc3N)c3c1C1=Nc4c5c(Sc6ccccc6N)c6c(c(Sc7ccccc7N)c5c5[n]4[V](=[O])[n]4c(c7c(Sc8ccccc8N)c8c(c(Sc9ccccc9N)c7c4=NC4=NC(=N5)c5c(Sc7ccccc7N)c7c(c(Sc9ccccc9N)c54)NC4C=CC=CC4S7)SC4C=CC=CC4N8)=NC3=N1)NC1C=CC=CC1S6)SC1C=CC=CC1N2 (stereo not shown) , can you help?
3%

What does the record list as Variation amount after irradiation [%] for CCOc1c2c(c(OCC)c3ccccc13)-c1nc-2nc2[n-]c(nc3nc(nc4[n-]c(n1)c1c(OCC)c5ccccc5c(OCC)c41)-c1c-3c(OCC)c3ccccc3c1OCC)c1c(OCC)c3ccccc3c(OCC)c21.[Cu+2] ?
4%

Would you kindly share the measured Variation amount after irradiation [%] for CCCCCCCCN1/C(=C/C=C/C=C/C=C/C2=[N+](CCCCCCCC)c3ccc4ccccc4c3C2(C)C)C(C)(C)c2c1ccc1ccccc21.Cc1ccc(S(=O)(=O)[O-])cc1 [reference compound] ?
21%
